From: paper PMC11012124

- measurement-notes: Hemolytic activity, spectrophotometric
- Format: cell-based, human
- condition-label: human, human red blood cells (huRBC), 5% hematocrit, 200 μg/mL, 37 °C
reported-endpoint: hemolysis at 24 h, 200 µg/mL (%)
Respond numerically; units are % and should not be typed.

compound: CN(C)c1nc(NCCNS(=O)(=O)c2ccc(C(=O)/C=C/c3ccc(F)cc3)cc2)nc(Nc2ccc(F)cc2)n1 [24f]
measurement-unit: %
hemolysis at 24 h, 200 µg/mL: 9.9

compound: COc1cc(C2CC(c3ccccc3)=Nc3c(N)nc(N)nc3N2)ccc1Oc1nc(NCCO)nc(N2CCOCC2)n1 (centres unmarked) [28a]
measurement-unit: %
hemolysis at 24 h, 200 µg/mL: 3

compound: Nc1nc(N)c2c(n1)NC(c1ccc(C(F)(F)F)cc1)CC(c1ccc(Nc3nc(NCCO)nc(Nc4ccc(Cl)cc4)n3)cc1)=N2 (centres unmarked) [33g]
measurement-unit: %
hemolysis at 24 h, 200 µg/mL: 22

compound: COc1cc(C2CC(c3ccc(C)cc3)=Nc3c(N)nc(N)nc3N2)ccc1Oc1nc(NCCO)nc(N2CCOCC2)n1 (centres unmarked) [28b]
measurement-unit: %
hemolysis at 24 h, 200 µg/mL: 5

compound: CN(C)c1nc(NCCNS(=O)(=O)c2ccc(C(=O)/C=C/c3ccccc3)cc2)nc(N2CCOCC2)n1 [23a]
measurement-unit: %
hemolysis at 24 h, 200 µg/mL: 0.7

compound: CN(C)c1nc(NCCNS(=O)(=O)c2ccc(C(=O)/C=C/c3ccccc3)cc2)nc(Nc2ccc(F)cc2)n1 [24a]
measurement-unit: %
hemolysis at 24 h, 200 µg/mL: 10.6

Qu. Entry under review: Cc1ccc(/C=C/C(=O)c2ccc(S(=O)(=O)NCCNc3nc(N(C)C)nc(N4CCOCC4)n3)cc2)cc1 [23b] . Reported hemolysis at 24 h, 200 µg/mL?
Ans. 1.8

Qu. Using the record for COc1cc(/C=C/C(=O)c2cc(OC)c(OC)c(OC)c2)ccc1Oc1nc(NCCO)nc(N2CCOCC2)n1 [20d] , report its hemolysis at 24 h, 200 µg/mL.
Ans. 1.2

Qu. Consider the compound CN(C)c1nc(NCCNS(=O)(=O)c2ccc(C3=Nc4c(N)nc(N)nc4NC(c4ccc(C(F)(F)F)cc4)C3)cc2)nc(N2CCOCC2)n1 (centres unmarked) [30g] and give its measured hemolysis at 24 h, 200 µg/mL.
Ans. 2.4

Qu. Request the reported hemolysis at 24 h, 200 µg/mL associated with Nc1nc(N)c2c(n1)NC(c1ccccc1)CC(c1ccc(Nc3nc(NCCO)nc(Nc4ccc(Cl)cc4)n3)cc1)=N2 (centres unmarked) [33a]
Ans. 8
